# assay summary: acute toxicity (delayed toxicity in mice after 20 days), i.p. in rape oil
# Format: in vivo
# measurement setup: mouse, ip, after 1 day
measured attribute: LD50 at 24 h

Please report LD50 at 24 h for the following compound: COC(C)C1=C(C=CC(C)=CC=CC(C)=CC(=O)O)C(C)(C)CC1 (stereo not shown)
> 4000 mg/kg
